Tested on: P388 leukemia ip, CD2F1 mice, survival T/C
Assay: NCI In Vivo Anticancer Drug Screen. Data for tumor model P388 Leukemia (intraperitoneal) in CD2F1 (CDF1) mice
Details: endpoint: median survival time; dose: 240.0 mg/kg/injection; schedule: Q01DX005 (ip); vehicle: Klucel (hydroxypropylcellulose) (HPC); higher = longer survival
Toxic doses and inconclusive results are not listed.
We begin with a simple list: items and their reported T/C.

Take a look at these entries with their results.
OCC1CC(c2ccccc2)=NO1 (configuration not stated)
101 % of control
COc1cc2c(cc1Cc1cc(OC)c(OC)c(OC)c1)OCO2
98 % of control
N#CC1=C(N)OC(C2CC2)=C(C#N)C1c1cccs1 (configuration not stated)
96 % of control

Item "CN(C)c1ccc(/C=N\N=C/c2ccc(N(C)C)cc2)cc1" ; assay system P388 leukemia ip, CD2F1 mice, survival T/C; T/C reported as 86 % of control

The value of T/C recorded for "O=C1S/C(=C2\C(=O)N(CN3CCCCC3)c3ccc(Br)cc32)C(=O)N1CN1CCCCC1" when tested on P388 leukemia ip, CD2F1 mice, survival T/C reads 99 % of control

Simply: O=C1C2=C(Nc3ccccc3N2)OC1c1ccc(C2OC3=C(Nc4ccccc4N3)C2=O)cc1 (configuration not stated) , P388 leukemia ip, CD2F1 mice, survival T/C, T/C = 87 % of control

"COc1ccc2nccc3c2c1NC(Cl)=C3" on P388 leukemia ip, CD2F1 mice, survival T/C gives T/C = 97 % of control

// assay P388 leukemia ip, CD2F1 mice, survival T/C, entry "O=C(Oc1ccc(=O)[nH]n1)c1ccccc1" , T/C value = 111 % of control

The compound CCc1ncc(C(O)c2ccc(Cl)cc2)n1Cc1ccccc1 (configuration not stated) , when measured on P388 leukemia ip, CD2F1 mice, survival T/C, yielded T/C of 90 % of control

The origin of these recorded values is PubChem BioAssay AID330.
